Source: ChEMBL document CHEMBL3885861

Species: Rattus norvegicus
Assay: Open TG-GATES - Regimen: Single
Assay type: toxicity, organism-based, Sprague-Dawley
Parameters: regimen Single, gender Male, age 6 weeks
Settings: in vivo, po, 0 mg/kg, 3 h, tissue Plasma, route gavage, dose level Control
parameter: TC (mg/dL)
Number in mg/dL, nothing else.

{"columns": ["molecule", "TC / mg/dL"],
 "data": [
  ["O=C(O)c1cccnc1 [NIACIN]", 80.8],
  ["CC(C)(S)[C@@H](N)C(=O)O [PENICILLAMINE]", 71.4]
]}

Given C[C@]12CCC(=O)C=C1CC[C@@H]1[C@@H]2CC[C@@]2(C)[C@H]1CC[C@]2(C)O [METHYLTESTOSTERONE] , state its recorded TC.
86.2

Repeat for the following molecule: CCC(C)(C)C(=O)O[C@H]1C[C@@H](C)C=C2C=C[C@H](C)[C@H](CC[C@@H]3C[C@@H](O)CC(=O)O3)[C@H]21 [SIMVASTATIN]
83.8

Try the molecule C#C[C@]1(O)CC[C@H]2[C@@H]3CCc4cc(O)ccc4[C@H]3CC[C@@]21C [ETHINYL ESTRADIOL]
86.2

// next record Oc1ncnc2[nH]ncc12 [ALLOPURINOL]
71.8

Input CC(=N)S [THIOACETAMIDE]
79.8

Proceed to CC(=O)Oc1cc(C(C)C)c(OCCN(C)C)cc1C [MOXISYLYTE]
79.8

Cool, now C[C@](N)(Cc1ccc(O)c(O)c1)C(=O)O [METHYLDOPA]
88

Query CCSCC[C@H](N)C(=O)O [ETHIONINE] next
70.6

###

Species: Rattus norvegicus
Experiment: Open TG-GATES - Regimen: Daily Repeat
Format: toxicity, organism-based, Sprague-Dawley
Parameters: regimen Daily Repeat, gender Male, age 6 weeks
Conditions: in vivo, po, 300 mg/kg, […], tissue Plasma, route gavage, dose level Middle, time 28 day
parameter: K (meq/L)
Kindly answer with a numeric value in meq/L, unit omitted.

{"columns": ["compound", "readout_unit", "quantitative_readout"],
 "data": [
  ["O=C(O)c1cccnc1 [NIACIN]", "meq/L", 4.4],
  ["O=C(N[C@H](CO)[C@H](O)c1ccc([N+](=O)[O-])cc1)C(Cl)Cl [CHLORAMPHENICOL]", "meq/L", 3.5],
  ["CC(C)(S)[C@@H](N)C(=O)O [PENICILLAMINE]", "meq/L", 3.6]
]}

Now let's try a different one.
Any idea what K was measured for CCN1CCCC1CNC(=O)c1cc(S(N)(=O)=O)ccc1OC (centres undefined) [SULPIRIDE] ?
3.8

###

Species on record: Rattus norvegicus
Assay: Open TG-GATES - Regimen: Daily Repeat
Format: toxicity, organism-based, Sprague-Dawley
Parameters: regimen Daily Repeat, gender Male, age 6 weeks
Conditions: in vivo, po, 0 mg/kg, 72 h, tissue Plasma, route gavage, dose level Control, time 3 day
Recorded CRE values for a group of compounds are listed next.
A number alone suffices; assume mg/dL.

{"columns": ["compound", "parameter", "quantitative_readout"],
 "data": [
  ["CCC(C)(C)C(=O)O[C@H]1C[C@@H](C)C=C2C=C[C@H](C)[C@H](CC[C@@H]3C[C@@H](O)CC(=O)O3)[C@H]21 [SIMVASTATIN]", "CRE", 0.6],
  ["C[C@](N)(Cc1ccc(O)c(O)c1)C(=O)O [METHYLDOPA]", "CRE", 0.2],
  ["O=C(N[C@H](CO)[C@H](O)c1ccc([N+](=O)[O-])cc1)C(Cl)Cl [CHLORAMPHENICOL]", "CRE", 0.2],
  ["C[C@]12CCC(=O)C=C1CC[C@@H]1[C@@H]2CC[C@@]2(C)[C@H]1CC[C@]2(C)O [METHYLTESTOSTERONE]", "CRE", 0.2]
]}

Turning to the following compound.
I'd like to know its CRE. The compound in question is CC(=N)S [THIOACETAMIDE]
0.6
